B1: SLC35F2 (parent)
chain: FVAFALCMFCLYSFMPLVIKVTSA

# Variants of: B1
# protocol_notes: protein stability index of a GFP-peptide fusion (GPS, HEK-293T) (PSI 1-6); higher = more stable;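 note: lentivirally expressed fusions sorted by FACS into six bins by GFP to DsRed ratio, PSI derived from sequencing read proportions per bin multiplied by bin number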
# setup_conditions: c terminus: a fixed tail appended
observable: protein stability index

>  <variant_descriptor>
Y12S

>  <recorded_result>
3.08

$$$$
>  <variant_descriptor>
T22Q

>  <recorded_result>
3.07

$$$$
>  <variant_descriptor>
M15H

>  <recorded_result>
2.97

$$$$
>  <variant_descriptor>
I19L

>  <recorded_result>
3.06

$$$$
>  <variant_descriptor>
L11K

>  <recorded_result>
3.17

$$$$
>  <variant_descriptor>
S13R

>  <recorded_result>
3.03

$$$$
>  <variant_descriptor>
F14Q

>  <recorded_result>
2.31

$$$$
>  <variant_descriptor>
F4N

>  <recorded_result>
4.39

$$$$
>  <variant_descriptor>
S13K

>  <recorded_result>
3.34

$$$$
>  <variant_descriptor>
V21R

>  <recorded_result>
2.38

$$$$
>  <variant_descriptor>
L17H

>  <recorded_result>
2.77

$$$$
>  <variant_descriptor>
I19K

>  <recorded_result>
3.47

$$$$
>  <variant_descriptor>
V21N

>  <recorded_result>
4.29

$$$$
>  <variant_descriptor>
F1W

>  <recorded_result>
2.65

$$$$
>  <variant_descriptor>
L17P

>  <recorded_result>
2.71

$$$$
